TEST METHOD NOTES: Phase 4 open-label single-dose study: pharmacokinetics of solriamfetol in plasma of healthy postpartum women
Assay type: in vivo, human
MEASUREMENT CONDITIONS: female, human, po, 150 mg, single oral 150 mg solriamfetol tablet, N = 6, read-out: t1/2, Geometric Mean (converted)
Structures can show the parent of a compound that is named as a salt.
MEASURED METRIC: half-life

- COMPOUND: "NC(=O)OC[C@H](N)Cc1ccccc1 [Solriamfetol, hydrochloride]"
  MEASURED METRIC: "half-life"
  RECORDED RESULT: "4.75 h"

====

TEST METHOD NOTES: Phase 4 open-label single-dose study: pharmacokinetics of solriamfetol in breast milk of healthy postpartum women
Format: in vivo, human
MEASUREMENT CONDITIONS: female, human, breast milk, po, 150 mg, breast milk; single oral 150 mg solriamfetol tablet; N = 6; read-out: Cmax, Geometric Mean
Method: A Phase 4, open-label, single-dose study to evaluate the pharmacokinetics (PK) of solriamfetol in the breast milk and plasma of healthy postpartum women following oral administration of a 150 mg solriamfetol tablet. The study was conducted in 6 healthy adult lactating women who were between 15 and 37 weeks postpartum and were administered a single oral dose of SUNOSI 150 mg. […] Breastfed infants should be monitored for adverse reactions, such as agitation, insomnia, anorexia, and reduced weight gain. […]
Where a name gives a salt, the structure may show the parent alone.

- COMPOUND: "NC(=O)OC[C@H](N)Cc1ccccc1 [Solriamfetol, hydrochloride]"
  Cmax: "1860 ng/mL"

Origin of measurements: patent US12036194B1
